Target: MAP4K1 (HPK1) (Homo sapiens (Human))
Test: MAP4K1 (HPK1) biochemical enzymatic activity, electrophoretic mobility shift (EZReader 2), ATP at APPKM (26 μM)
Settings: numeric value
pIC50: −log10 of the molar value.
Endpoint: pIC50

INSERT INTO assay_data (compound, meas_value) VALUES
  ('CC[C@H]1c2nc(Nc3cc4c(C(C)(C)N)cnc(OC5CC5)c4cn3)ccc2C(=O)O[C@H]1C [Compound 128]', 8.96),
  ('C[C@@H](Oc1ncc(C(C)(C)N)c2cc(Nc3ccc4c(n3)CC(C)(C)OC4=O)ncc12)C(F)F (single isomer, unassigned)', 8.90),
  ('CC[C@](C)(N)c1cnc(NC2CC2)c2cnc(Nc3ccc4c(n3)[C@@H](C)[C@H](C)OC4=O)cc12', 9.80),
  ('CC1(C)Cc2nc(Nc3cc4c([C@](C)(N)C5CC5)cnc(OC5CC5)c4cn3)ccc2C(=O)N1 (single isomer, unassigned)', 9.96),
  ('CC[C@](C)(N)c1cnc(OC)c2cnc(Nc3ccc4c(n3)CC(C)(C)OC4=O)cc12 (single isomer, unassigned)', 9.26),
  ('C[C@H]1c2nc(Nc3cc4c(C(C)(C)N)cnc(OC5CC5)c4cn3)ccc2C(=O)OC1(C)C', 9.46);

###

Listed below: IC50 values for each entry.
Molecular target: MAP4K1 (HPK1) (Homo sapiens (Human), UniProt Q92918)
Sequence (Q92918 whole entry): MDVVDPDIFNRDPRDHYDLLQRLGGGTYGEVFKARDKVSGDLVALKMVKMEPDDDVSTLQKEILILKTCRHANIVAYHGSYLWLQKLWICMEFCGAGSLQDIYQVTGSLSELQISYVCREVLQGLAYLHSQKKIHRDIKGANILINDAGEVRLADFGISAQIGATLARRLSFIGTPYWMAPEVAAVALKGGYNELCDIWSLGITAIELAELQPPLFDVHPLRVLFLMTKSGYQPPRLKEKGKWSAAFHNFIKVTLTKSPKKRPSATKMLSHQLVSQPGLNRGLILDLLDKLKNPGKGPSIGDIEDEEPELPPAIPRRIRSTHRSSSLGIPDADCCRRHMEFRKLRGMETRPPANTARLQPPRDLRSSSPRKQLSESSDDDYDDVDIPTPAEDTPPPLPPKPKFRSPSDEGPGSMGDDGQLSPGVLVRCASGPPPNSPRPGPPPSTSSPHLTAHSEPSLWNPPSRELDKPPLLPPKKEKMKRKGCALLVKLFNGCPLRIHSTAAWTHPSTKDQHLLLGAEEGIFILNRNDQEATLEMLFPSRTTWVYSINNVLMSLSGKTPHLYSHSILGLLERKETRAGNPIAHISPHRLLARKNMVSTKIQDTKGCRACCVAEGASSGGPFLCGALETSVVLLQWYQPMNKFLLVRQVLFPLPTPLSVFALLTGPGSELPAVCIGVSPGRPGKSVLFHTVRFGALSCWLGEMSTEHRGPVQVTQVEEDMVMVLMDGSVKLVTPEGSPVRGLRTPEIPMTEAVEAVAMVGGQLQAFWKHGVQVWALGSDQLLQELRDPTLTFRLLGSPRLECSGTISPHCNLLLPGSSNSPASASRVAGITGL
Test: MAP4K1 (HPK1) biochemical enzymatic activity, electrophoretic mobility shift (EZReader 2), ATP at APPKM (26 μM)
Conditions: class designation
Endpoint: IC50

INSERT INTO results (molecule, meas_value) VALUES
  ('CC(C)(N)c1cnc(OCC(F)(F)F)c2cnc(Nc3ccnc(C(C)(C)F)n3)cc12 [Compound 115]', '> 10 nM'),
  ('C[C@@H]1OC(=O)c2ccc(Nc3cc4c(C(C)(C)N)cnc(O[C@H]5CCOC5)c4cn3)nc2[C@H]1C [Compound 159]', '0.31 to 1 nM'),
  ('COc1ncc(C(C)(C)N)c2cc(Nc3ccc4c(n3)[C@@H](C)[C@H](C)OC4=O)ncc12 [Compound 37]', '< 0.3 nM'),
  ('CC[C@@](C)(N)c1cnc(OCC(F)(F)F)c2cnc(Nc3ccc4c(n3)[C@@H](C)[C@H](C)OC4=O)cc12 (single isomer, unassigned) [Compound 182]', '1.1 to 10 nM'),
  ('CC[C@H]1c2nc(Nc3cc4c(C(C)(C)N)cnc(OC5CC5)c4cn3)ccc2C(=O)O[C@H]1C [Compound 138]', '< 0.3 nM'),
  ('CC[C@](C)(N)c1cnc(OC2(C)CC2)c2cnc(Nc3ccc4c(n3)[C@@H](C)[C@@H](C)OC4=O)cc12 [Compound 92]', '< 0.3 nM'),
  ('COC[C@@H](N)c1cnc(OC)c2cnc(Nc3ccc4c(n3)[C@@H](C)C(C)(C)OC4=O)cc12 [Compound 208]', '0.31 to 1 nM'),
  ('C[C@H](Oc1ncc(C(C)(C)N)c2cc(Nc3ccc4c(n3)CC(C)(C)OC4=O)ncc12)C(F)(F)F (single isomer, unassigned) [Compound 180]', '> 10 nM'),
  ('CC1(C)Cc2nc(Nc3cc4c([C@](C)(N)C5CCC5)cnc(OC5CC5)c4cn3)ccc2C(=O)O1 [Compound 168]', '< 0.3 nM'),
  ('CC1(C)Cc2nc(Nc3cc4c([C@](C)(N)C5CC5)cnc(OC5CC5)c4cn3)ccc2C(=O)O1 [Compound 74]', '< 0.3 nM'),
  ('COc1ncc(C(C)(C)N)c2cc(Nc3ccc4c(n3)C[C@H](C)OC4=O)ncc12 (single isomer, unassigned) [Compound 25]', '< 0.3 nM'),
  ('C[C@@H]1OC(=O)c2ccc(Nc3cc4c(C(C)(C)N)cnc(OC5CC5)c4cn3)nc2C12CC2 [Compound 120]', '0.31 to 1 nM'),
  ('CC[C@]1(C)OC(=O)c2ccc(Nc3cc4c(C(C)(C)N)cnc(OCC(F)(F)F)c4cn3)nc21 [Compound 172]', '1.1 to 10 nM'),
  ('COc1ncc(C(C)(C)NC2CCC2)c2cc(Nc3ccc4c(n3)CC(C)(C)OC4=O)ncc12 [Compound 158]', '1.1 to 10 nM'),
  ('CCOc1ncc(C(C)(C)N)c2cc(Nc3ccc4c(n3)[C@@H](C)[C@@H](C)OC4=O)ncc12 (single isomer, unassigned) [Compound 59]', '1.1 to 10 nM'),
  ('C[C@@H]1c2nc(Nc3cc4c([C@](C)(N)C5CC5)cnc(OC5(C)CC5)c4cn3)ccc2C(=O)O[C@@H]1C [Compound 94]', '< 0.3 nM'),
  ('C[C@@H]1OC(=O)c2ccc(Nc3cc4c(C(C)(C)N)cnc(OCC5(F)CC5)c4cn3)nc2[C@H]1C [Compound 162]', '< 0.3 nM'),
  ('COC[C@@](C)(N)c1cnc(C)c2cnc(Nc3ccc4c(n3)[C@@H](C)[C@H](C)OC4=O)cc12 [Compound 205]', '0.31 to 1 nM'),
  ('CCOc1ncc(C(C)(C)N)c2cc(Nc3ccc4c(n3)[C@H](C)[C@H](C)OC4=O)ncc12 (single isomer, unassigned) [Compound 60]', '< 0.3 nM'),
  ('COC[C@@](C)(N)c1cnc(OC)c2cnc(Nc3ccc4c(n3)[C@@H](C)[C@H](C)OC4=O)cc12 [Compound 188]', '< 0.3 nM'),
  ('CC[C@@](C)(N)c1cnc(OC2CC2)c2cnc(Nc3ccc4c(n3)[C@@H](C)[C@@H](C)OC4=O)cc12 [Compound 96]', '< 0.3 nM'),
  ('CCOc1ncc(C(C)(C)N)c2cc(Nc3ccc4c(n3)[C@H](C)COC4=O)ncc12 (single isomer, unassigned) [Compound 44]', '1.1 to 10 nM'),
  ('CNc1ncc(C(C)(C)N)c2cc(Nc3ccnc(C(C)(C)F)n3)ncc12 [Compound 6]', '1.1 to 10 nM'),
  ('CCOc1ncc(C(C)(C)N)c2cc(Nc3ccc4c(n3)[C@@H](C)COC4=O)ncc12 (single isomer, unassigned) [Compound 43]', '< 0.3 nM'),
  ('COCC(C)(N)c1cnc(OC2CC2)c2cnc(Nc3ccc4c(n3)[C@@H](C)[C@H](C)OC4=O)cc12 (single isomer, unassigned) [Compound 184]', '< 0.3 nM'),
  ('CNc1ncc(C(C)(C)N)c2cc(Nc3cnc(C#N)c(N4CCC[C@@H]4C)n3)ncc12 [Compound 48]', '1.1 to 10 nM'),
  ('CC1(C)Cc2nc(Nc3cc4c(C(C)(C)N)cnc(OC5CCC5)c4cn3)ccc2C(=O)O1 [Compound 72]', '0.31 to 1 nM');

###

Target: MAP4K1 (HPK1) (Homo sapiens (Human), UniProt Q92918)
Experiment: MAP4K1 (HPK1) biochemical enzymatic activity, electrophoretic mobility shift (EZReader 2), ATP at APPKM (26 μM)
Details: numeric value
Listed compounds paired with reported IC50
Endpoint: IC50

INSERT INTO measurements (compound, endpoint, meas_value) VALUES
  ('CC[C@]1(C)OC(=O)c2ccc(Nc3cc4c([C@](C)(N)C5CC5)cnc(OC5CC5)c4cn3)nc21 (single isomer, unassigned)', 'IC50', '0.42 nM'),
  ('CC[C@@H](N)c1cnc(C)c2cnc(Nc3ccc4c(n3)[C@@H](C)C(C)(C)OC4=O)cc12', 'IC50', '0.23 nM'),
  ('CC(C)(N)c1cnc(OCC(F)(F)F)c2cnc(Nc3ccnc([C@@H]4CCC[C@@H](O)C4)n3)cc12', 'IC50', '0.8 nM'),
  ('C[C@](N)(c1cnc(OC2CC2)c2cnc(Nc3ccc4c(n3)CC3(CC3)OC4=O)cc12)C1CC1 (single isomer, unassigned)', 'IC50', '0.27 nM'),
  ('CC(C)(N)c1cnc(OCC(F)(F)F)c2cnc(Nc3ccnc(C(C)(C)F)n3)cc12', 'IC50', '7.39 nM'),
  ('C[C@@H]1OC(=O)c2ccc(Nc3cc4c([C@@](C)(N)C5CC5)cnc(O[C@H]5C[C@H](O)C5)c4cn3)nc2[C@H]1C (relative stereo)', 'IC50', '0.1 nM');

###

Target: MAP4K1 (HPK1) (Homo sapiens (Human))
Experiment: MAP4K1 (HPK1) biochemical enzymatic activity, electrophoretic mobility shift (EZReader 2), ATP at APPKM (26 μM)
Settings: numeric value
pIC50: −log10 of the molar value.
Rule: pIC50 under 9 gives Criterion not met, otherwise Criterion met.

INSERT INTO measurements (compound, classification) VALUES
  ('COC[C@@](C)(N)c1cnc(OC2CC2)c2cnc(Nc3ccc4c(n3)[C@@H](C)C(C)(C)OC4=O)cc12', 'Criterion met'),
  ('CC[C@@H](N)c1cnc(OC)c2cnc(Nc3ccc4c(n3)[C@@H](C)C(C)(C)OC4=O)cc12', 'Criterion met'),
  ('CC[C@](C)(N)c1cnc(OC2CC2)c2cnc(Nc3ccc4c(n3)[C@@H](C)[C@H](C)OC4=O)cc12', 'Criterion met'),
  ('C[C@@H](Oc1ncc(C(C)(C)N)c2cc(Nc3ccc4c(n3)CC(C)(C)OC4=O)ncc12)C(F)(F)F (single isomer, unassigned)', 'Criterion not met'),
  ('CC[C@](C)(N)c1cnc(OC2(C)CC2)c2cnc(Nc3ccc4c(n3)[C@@H](C)[C@H](C)OC4=O)cc12', 'Criterion met'),
  ('COc1ncc([C@@](C)(N)C2CC2)c2cc(Nc3ccc4c(n3)C(C)(C)OC4=O)ncc12', 'Criterion not met');

Origin of values: patent US11534441B2
